tested on: HOP-92 NSCLC; experiment: NCI-60 one-dose screen, 48 h (100 = growth as untreated, 0 = no growth, -100 = all killed); settings: 10 µM unless noted
This is part of a sample that, as a whole, favours compounds with a hit. Of some 83,000 tested, about 20% had one in any assay.
The entries below are paired with their reported growth.
Answer in %, number only, no unit symbol.

Worked cases, answers included:
1) COc1cc(-c2nc3ccc(-c4nnc(SCC(=O)Nc5ccc(C(C)=O)cc5)o4)cc3[nH]2)cc(OC)c1OC: 92.5
2) COc1ccc(C(=O)/C=C/c2ccc(OCc3ccc(C)cc3)c(OC)c2)cc1OC: 60.6
3) NS(=O)(=O)c1cccc(Nc2nc(SCC(=O)c3ccc([N+](=O)[O-])cc3)nc3ccccc23)c1: 52

# growth lookup, item COc1ccc(C(=O)/C=C/c2ccc(OCc3ccc(Cl)cc3)c(OC)c2)cc1OC
64.9

# growth lookup, item OC1CCN(CCCOc2c3ccc(Cl)cc3nc3c2oc2ccc(Cl)cc23)CC1
9.66

# growth lookup, item O=C(CN1CCOCC1)NNc1ncnc2ccccc12
51.5

# growth lookup, item COc1ccc(CNS(=O)(=O)/N=C2\NC(=O)NC2=C(Cl)Cl)cc1
-2.17

# growth lookup, item O=C1/C(=C/C2=Cc3ccccc3OC2)SC(=S)N1c1ccc(F)cc1
99.2

# growth lookup, item NS(=O)(=O)c1ccc(Nc2nc(Nc3ccccc3)nc(-n3nc(-c4ccccc4)cc3-c3ccccc3)n2)cc1
26.8

----------
system: EKVX NSCLC; assay: NCI-60 one-dose screen, 48 h; settings: 10 µM unless noted
About 83,000 compounds went through this panel and 20% of them were active in at least one assay; those are over-represented in the sample as a whole. The source made the active and inactive calls. Rule for the calls: active = growth percent below 10; inactive = the rest.
// one of yes for active, no for inactive, no free text

Example results:
1. Clc1ccc2c(NCCCN3CCOCC3)c3oc4ccccc4c3nc2c1: no
2. CC(=O)c1ccc(Nc2nc(SC(C)C)nc(-c3ccccc3)c2C#N)cc1: no
3. COc1ccc(NC(=O)c2sc3nc(-c4cnccn4)cc(-c4cccs4)c3c2N)cc1: no
4. CC(C)(C)Nc1nc2c(OCCc3ccccc3)cccn2c1-c1cccc(F)c1: yes
5. O=C1c2c(c3c4cc(Br)ccc4[nH]c3c3ccc4ccccc4c23)C(=O)N1CCO: no
6. O=[N+]([O-])c1ccc(O)c2ncccc12: no
7. O=C(N/N=C/c1ccc(Cl)s1)c1[nH]c2ccc(Br)cc2c1-c1ccccc1: no
8. CN(C)CCCNc1c2ccc(Cl)cc2nc2c1oc1ccc(Cl)cc12: no
9. O=C(CSc1nnc(-c2ccc3nc(-c4ccc(Cl)cc4)[nH]c3c2)o1)Nc1ccc(C(=O)/C=C/c2ccc(Cl)cc2)cc1: no
10. NC(=O)c1c(NC(=O)c2ccc(C3CCCCC3)cc2)sc2c1CCC(=O)C2: no

Returns: the outcome recorded for Nc1ncc(-c2ccc3ncnc(N4CCc5cc(F)c(Cl)cc54)c3c2)cc1CO in this assay.
yes

Returns: the outcome recorded for CCOC(=O)c1c(Nc2ccccc2)nn2c(-c3ccco3)c(C#N)cnc12 in this assay.
no

Returns: the outcome recorded for O=c1[nH]c2ccccc2cc1CSc1ccccc1Nc1nccc(-c2ccc(C(F)(F)F)cc2)n1 in this assay.
no

Returns: the outcome recorded for COc1cccc(NC2=CC(=O)C(C)=C(C)C2=O)c1 in this assay.
no

Returns: the outcome recorded for Nc1c(C(=O)Nc2ccc(Cl)cc2)sc2nc(-c3cnccn3)cc(-c3cccs3)c12 in this assay.
no
